The reported numbers originate from paper PMC6983514.

Recorded B (SE), Proton pump inhibitor on analyte level for the following molecules
# measurementDescription: Main analysis: all subsets multivariable linear regression with BIC model averaging of clinical factors/comedications on ATV analyte levels, ratios and sum total
# Assay type: in vivo, human
# studyConditions: log10 transformed plasma concentration; model averaged coefficient
measuredAttribute: B (SE), Proton pump inhibitor on analyte level

1) CC(C)c1c(C(=O)Nc2ccccc2)c(-c2ccccc2)c(-c2ccc(F)cc2)n1CC[C@@H](O)C[C@@H](O)CC(=O)O [ATV, atorvastatin, reference compound]	0.093 (0.030)
2) CC(C)c1c(C(=O)Nc2ccccc2O)c(-c2ccccc2)c(-c2ccc(F)cc2)n1CC[C@@H](O)C[C@@H](O)CC(=O)O [2‐OH ATV]	0.062 (0.024)
3) CC(C)c1c(C(=O)Nc2ccccc2)c(-c2ccccc2)c(-c2ccc(F)cc2)n1CCC1CC(O)CC(=O)O1 (stereo not shown) [ATV L]	0.139 (0.033)
4) CC(C)c1c(C(=O)Nc2ccccc2O)c(-c2ccccc2)c(-c2ccc(F)cc2)n1CCC1CC(O)CC(=O)O1 (stereo not shown) [2‐OH ATV L]	0.106 (0.026)

----------
# measurementDescription: Plasma concentrations of ATV and metabolites by HPLC-MS/MS in NSTE-ACS patients at V2 (1 month)
# Format: in vivo, human
# studyConditions: human, plasma, oral, median ATV concentration, patients not on a PPI; unadjusted
measuredAttribute: concentration at 1 month (ng/mL)

1) CC(C)c1c(C(=O)Nc2ccccc2)c(-c2ccccc2)c(-c2ccc(F)cc2)n1CC[C@@H](O)C[C@@H](O)CC(=O)O [ATV, atorvastatin, reference compound]	4.9

----------
# B (SE), Proton pump inhibitor on analyte level annotations
# measurementDescription: Genotype-stratified analysis: PPI association with endpoints by CYP2C19 predicted metaboliser status
# Assay type: in vivo, human
# studyConditions: CYP2C19 EM (n = 233), on PPI n = 88; adjusted
measuredAttribute: B (SE), Proton pump inhibitor on analyte level

1. CC(C)c1c(C(=O)Nc2ccccc2)c(-c2ccccc2)c(-c2ccc(F)cc2)n1CCC1CC(O)CC(=O)O1 (stereo not shown)	0.076 (0.050)
2. CC(C)c1c(C(=O)Nc2ccccc2O)c(-c2ccccc2)c(-c2ccc(F)cc2)n1CCC1CC(O)CC(=O)O1 (stereo not shown)	0.065 (0.039)
3. CC(C)c1c(C(=O)Nc2ccccc2)c(-c2ccccc2)c(-c2ccc(F)cc2)n1CC[C@@H](O)C[C@@H](O)CC(=O)O [ATV, atorvastatin, reference compound]	0.052 (0.045)
4. CC(C)c1c(C(=O)Nc2ccccc2O)c(-c2ccccc2)c(-c2ccc(F)cc2)n1CC[C@@H](O)C[C@@H](O)CC(=O)O	0.045 (0.038)

----------
# measurementDescription: Main analysis: all subsets multivariable linear regression with BIC model averaging of clinical factors/comedications on ATV analyte levels, ratios and sum total
# Type: in vivo, human
# studyConditions: log10 transformed plasma concentration; model averaged coefficient
measuredAttribute: B (SE), Time since last ATV on analyte level

1. CC(C)c1c(C(=O)Nc2ccccc2)c(-c2ccccc2)c(-c2ccc(F)cc2)n1CCC1CC(O)CC(=O)O1 (stereo not shown) [ATV L]	−0.0007 (0.0001)
2. CC(C)c1c(C(=O)Nc2ccccc2O)c(-c2ccccc2)c(-c2ccc(F)cc2)n1CCC1CC(O)CC(=O)O1 (stereo not shown) [2‐OH ATV L]	−0.0006 (0.0001)
3. CC(C)c1c(C(=O)Nc2ccccc2O)c(-c2ccccc2)c(-c2ccc(F)cc2)n1CC[C@@H](O)C[C@@H](O)CC(=O)O [2‐OH ATV]	−0.0007 (0.0001)
4. CC(C)c1c(C(=O)Nc2ccccc2)c(-c2ccccc2)c(-c2ccc(F)cc2)n1CC[C@@H](O)C[C@@H](O)CC(=O)O [ATV, atorvastatin, reference compound]	−0.001 (0.0001)

----------
Items are presented alongside their recorded B (SE), ATV dose on analyte level.
# measurementDescription: Main analysis: all subsets multivariable linear regression with BIC model averaging of clinical factors/comedications on ATV analyte levels, ratios and sum total
# Type: in vivo, human
# studyConditions: log10 transformed plasma concentration; model averaged coefficient
# Text: All variables were considered in model selection (see below) except hypertension, hyperlipidaemia, and prior CVD. Prior to modelling, all endpoints were log10 transformed to normalise the distribution of (observed) residuals and optimise homoscedasticity. […]
measuredAttribute: B (SE), ATV dose on analyte level

1. CC(C)c1c(C(=O)Nc2ccccc2)c(-c2ccccc2)c(-c2ccc(F)cc2)n1CCC1CC(O)CC(=O)O1 (stereo not shown)	0.222 (0.064)
2. CC(C)c1c(C(=O)Nc2ccccc2O)c(-c2ccccc2)c(-c2ccc(F)cc2)n1CCC1CC(O)CC(=O)O1 (stereo not shown)	0.215 (0.051)
3. CC(C)c1c(C(=O)Nc2ccccc2)c(-c2ccccc2)c(-c2ccc(F)cc2)n1CC[C@@H](O)C[C@@H](O)CC(=O)O [ATV, atorvastatin, reference compound]	0.153 (0.058)
4. CC(C)c1c(C(=O)Nc2ccccc2O)c(-c2ccccc2)c(-c2ccc(F)cc2)n1CC[C@@H](O)C[C@@H](O)CC(=O)O	0.212 (0.048)

----------
# measurementDescription: Main analysis: all subsets multivariable linear regression with BIC model averaging of clinical factors/comedications on ATV analyte levels, ratios and sum total
# Type: in vivo, human
# studyConditions: log10 transformed plasma concentration; model averaged coefficient
# reported B (SE), Loop diuretic on analyte level; entries follow
measuredAttribute: B (SE), Loop diuretic on analyte level

1) CC(C)c1c(C(=O)Nc2ccccc2)c(-c2ccccc2)c(-c2ccc(F)cc2)n1CCC1CC(O)CC(=O)O1 (stereo not shown)	0.121 (0.043)
2) CC(C)c1c(C(=O)Nc2ccccc2O)c(-c2ccccc2)c(-c2ccc(F)cc2)n1CC[C@@H](O)C[C@@H](O)CC(=O)O	0.074 (0.033)
3) CC(C)c1c(C(=O)Nc2ccccc2O)c(-c2ccccc2)c(-c2ccc(F)cc2)n1CCC1CC(O)CC(=O)O1 (stereo not shown)	0.084 (0.035)
4) CC(C)c1c(C(=O)Nc2ccccc2)c(-c2ccccc2)c(-c2ccc(F)cc2)n1CC[C@@H](O)C[C@@H](O)CC(=O)O [ATV, atorvastatin, reference compound]	0.099 (0.040)

----------
# measurementDescription: Plasma concentrations of ATV and metabolites by HPLC-MS/MS in NSTE-ACS patients at V2 (1 month)
# Type: in vivo, human
# studyConditions: human, plasma, oral, median ATV concentration, patients on a loop diuretic; unadjusted
measuredAttribute: concentration at 1 month (ng/mL)

1. CC(C)c1c(C(=O)Nc2ccccc2)c(-c2ccccc2)c(-c2ccc(F)cc2)n1CC[C@@H](O)C[C@@H](O)CC(=O)O [ATV, atorvastatin, reference compound]	6.8

----------
# measurementDescription: Plasma concentrations of ATV and metabolites by HPLC-MS/MS in NSTE-ACS patients at V2 (1 month)
# Type: in vivo, human
# studyConditions: human, plasma, oral, 80 mg daily, 80 mg ATV daily; plasma at V2, median […] since last ATV (estimated); read-out: Conc (ng/mL), median (IQR)
# Excerpt: This investigation harnessed the Pharmacogenetics of Acute Coronary Syndrome (PhACS) study, described previously.13 Briefly, PhACS was a UK multicentre prospective observational study that recruited 1470 eligible patients hospitalised with an NSTE‐ACS between 2008–2012 and followed them up at 1 (V2) and 12 (V3) months. Demographic, comorbidity and prescription information was collected at baseline; drug use, drug adherence, and new clinical events were captured during follow up. […]
measuredAttribute: concentration at […] (ng/mL)

1) CC(C)c1c(C(=O)Nc2ccccc2O)c(-c2ccccc2)c(-c2ccc(F)cc2)n1CC[C@@H](O)C[C@@H](O)CC(=O)O	6.93
2) CC(C)c1c(C(=O)Nc2ccccc2O)c(-c2ccccc2)c(-c2ccc(F)cc2)n1CCC1CC(O)CC(=O)O1 (stereo not shown)	7
3) CC(C)c1c(C(=O)Nc2ccccc2)c(-c2ccccc2)c(-c2ccc(F)cc2)n1CC[C@@H](O)C[C@@H](O)CC(=O)O [ATV, atorvastatin, reference compound]	5.22
4) CC(C)c1c(C(=O)Nc2ccccc2)c(-c2ccccc2)c(-c2ccc(F)cc2)n1CCC1CC(O)CC(=O)O1 (stereo not shown)	3.97

----------
Recorded B (SE), Proton pump inhibitor on analyte level by entry
# measurementDescription: Genotype-stratified analysis: PPI association with endpoints by CYP2C19 predicted metaboliser status
# Format: in vivo, human
# studyConditions: CYP2C19 PM/IM (n = 152), on PPI n = 58; adjusted
measuredAttribute: B (SE), Proton pump inhibitor on analyte level

1. CC(C)c1c(C(=O)Nc2ccccc2O)c(-c2ccccc2)c(-c2ccc(F)cc2)n1CC[C@@H](O)C[C@@H](O)CC(=O)O	0.032 (0.050)
2. CC(C)c1c(C(=O)Nc2ccccc2O)c(-c2ccccc2)c(-c2ccc(F)cc2)n1CCC1CC(O)CC(=O)O1 (stereo not shown)	0.018 (0.057)
3. CC(C)c1c(C(=O)Nc2ccccc2)c(-c2ccccc2)c(-c2ccc(F)cc2)n1CC[C@@H](O)C[C@@H](O)CC(=O)O [ATV, atorvastatin, reference compound]	0.046 (0.061)
4. CC(C)c1c(C(=O)Nc2ccccc2)c(-c2ccccc2)c(-c2ccc(F)cc2)n1CCC1CC(O)CC(=O)O1 (stereo not shown)	0.084 (0.070)
